Target: ENL YEATS domain (6×HIS ENL YEATS Domain) binding to H3K9cr peptide (Homo sapiens, UniProt Q03111)
pIC50: −log10 of the molar value.
Measurement kind: pIC50

C[C@H]1CCCN1Cc1cc2cnc(NC(=O)c3ccc4cc[nH]c(=O)c4c3)cc2[nH]1; 6.40

(A) CNc1cc2ccc(C(=O)Nc3cc4[nH]c(CN5CCC[C@@H]5C)cc4cn3)cc2cn1
(B) C[C@H]1CCCN1Cc1cc2cnc(NC(=O)c3nc4cc(N)ccc4[nH]3)cc2[nH]1
Problem: Task for the reader: decide whether A or B has the larger pIC50. In your reply, give the label of the chosen option.
Result: A

* * *

Target: ENL YEATS domain (6×HIS ENL YEATS Domain) binding to H3K9cr peptide (Homo sapiens, UniProt Q03111)
Sequence (Q03111 1-150): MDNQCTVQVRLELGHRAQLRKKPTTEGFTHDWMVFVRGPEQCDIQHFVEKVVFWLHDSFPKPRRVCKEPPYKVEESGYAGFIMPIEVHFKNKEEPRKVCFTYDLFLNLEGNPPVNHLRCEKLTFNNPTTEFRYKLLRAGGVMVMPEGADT
Measurement kind: IC50 (nM)

C[C@H]1CCCN1Cc1cc2cnc(NC(=O)c3ccc4c(C(F)F)nn(C)c4c3)cc2[nH]1; 116

(a) C[C@H]1CCCN1Cc1cc2cnc(NC(=O)c3ccc4cnccc4c3)cc2[nH]1
(b) C[C@H]1CCCN1Cc1cc2cnc(NC(=O)c3ccc(-c4cn[nH]c4)cn3)cc2[nH]1
Problem: Task for the reader: decide whether a or b has the larger IC50. In your reply, give the label of the chosen option.
Result: b

* * *

Target: ENL YEATS domain (6×HIS ENL YEATS Domain) binding to H3K9cr peptide (Homo sapiens, UniProt Q03111)
pIC50: −log10 of the molar value.
Measurement kind: pIC50

C[C@H]1CCCN1Cc1cc2cnc(NC(=O)c3ccc4nccnc4c3)cc2[nH]1; 6.31

(A) C[C@H]1CCCN1Cc1cc2cnc(NC(=O)c3ccc(-c4cc[nH]n4)cc3F)cc2[nH]1
(B) C[C@H]1CCCN1Cc1cc2cnc(NC(=O)c3cc4cnccc4cn3)cc2[nH]1
(C) C[C@H]1CCCN1Cc1cc2cnc(NC(=O)c3ccc(C(=N)N)cc3)cc2[nH]1
Problem: Hey, can you sort those compounds up there by pIC50, smallest first? I would appreciate it if you listed the labels in the requested order.
Result: C, A, B
(C: 5.72, A: 6.16, B: 6.84)

* * *

Target: ENL YEATS domain (6×HIS ENL YEATS Domain) binding to H3K9cr peptide (Homo sapiens, UniProt Q03111)
Sequence (Q03111 1-150): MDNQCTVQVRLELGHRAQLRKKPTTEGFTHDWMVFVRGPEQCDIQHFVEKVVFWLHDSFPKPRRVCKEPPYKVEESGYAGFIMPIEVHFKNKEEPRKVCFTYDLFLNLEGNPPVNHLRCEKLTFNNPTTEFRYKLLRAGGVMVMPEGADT
pIC50: −log10 of the molar value.
Measurement kind: pIC50

Example cases with answers are listed next.
C[C@H]1CCCN1Cc1cc2cnc(NC(=O)c3ccc(-c4cnn(C)c4)cc3F)cc2[nH]1; 6.64
Cc1ncc2cc(C(=O)Nc3cc4[nH]c(CN5CCC[C@@H]5C)cc4cn3)ccn12; 6.73

(I) Cc1nn(C2COC2)c2ccc(C(=O)Nc3cc4[nH]c(CN5CCC[C@@H]5C)cc4cn3)cc12
(II) COCCNc1nn(C)c2cc(C(=O)Nc3cc4[nH]c(CN5CCC[C@@H]5C)cc4cn3)ccc12
Problem: Task for the reader: decide whether I or II has the larger pIC50. In your reply, give the label of the chosen option.
Result: II
